Target: Cytochrome P450 2C19 (Homo sapiens)
Test: blockers of cytochrome P450 2C19 activity – biochemical, luminescence, ADME assay, primary screen (AID 778);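 further: plate controls were negative control wells for no effect and 2.5 mM tranylcypromine positive control for full effect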
Conditions: CYP2C19 Supersomes, luciferin-H EGE luminescence, 30 min; at 5 µM
Screen size: about 96,000 compounds; about 20,000 (21%) were called active.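 How the source made its calls: active means CYP2C19 inhibition above a set limit at 5 µM in the primary screen (cut at about 50% in these data); inactive means the rest.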 These entries were drawn from the full list.
Labels: 1.0 for active, 0.0 for inactive

{"SMI": "COc1ccc(O)c(C=Nc2cc(C)on2)c1", "TARGET SYSTEM": "Cytochrome P450 2C19 (Homo sapiens)", "CLASS LABEL": 0.0}
{"SMI": "Cc1cc(C(=O)Nc2ccccc2N2CCOCC2)c2ccccc2n1", "TARGET SYSTEM": "Cytochrome P450 2C19 (Homo sapiens)", "CLASS LABEL": 0.0}
{"SMI": "Cc1cc(C)c(S(=O)(=O)N2C=CC(C(F)(F)F)=NCC2)c(C)c1", "TARGET SYSTEM": "Cytochrome P450 2C19 (Homo sapiens)", "CLASS LABEL": 0.0}
{"SMI": "c1ccc(-c2oc3ncnc(N4CCOCC4)c3c2-c2ccccc2)cc1", "TARGET SYSTEM": "Cytochrome P450 2C19 (Homo sapiens)", "CLASS LABEL": 0.0}
{"SMI": "CCOC(=O)c1c(N)sc(C(C)=O)c1C", "TARGET SYSTEM": "Cytochrome P450 2C19 (Homo sapiens)", "CLASS LABEL": 0.0}
{"SMI": "COc1ccc(O)c(C(=O)c2cnc3onc(C(C)C)c3c2)c1", "TARGET SYSTEM": "Cytochrome P450 2C19 (Homo sapiens)", "CLASS LABEL": 1.0}

###

Target: Cytochrome P450 2C19 (Homo sapiens)
Test: blockers of cytochrome P450 2C19 activity – biochemical, luminescence, ADME assay, primary screen (AID 778)
Conditions: CYP2C19 Supersomes, luciferin-H EGE luminescence, 30 min; at 5 µM; hits give high values
The whole screen tested about 96,000 compounds, of which about 20,000 (21%) were called active. Not all results are given here.
Measured inhibition accompanies every entry in the list below.
MEASURE: inhibition (%)

{"COMPOUND": "O=C(Nc1ccc(Cl)cc1)N1CCc2[nH]c3ccccc3c2C1", "TARGET SYSTEM": "Cytochrome P450 2C19 (Homo sapiens)", "VALUE OBSERVED": 13.4}
{"COMPOUND": "Cc1cc(O)cc(O)c1C(=O)Cc1cnn(-c2ccccc2)c1", "TARGET SYSTEM": "Cytochrome P450 2C19 (Homo sapiens)", "VALUE OBSERVED": 56.7}
{"COMPOUND": "CCOc1ccc(Nc2nc(Cc3nnc(SCC(=O)c4ccc(C)cc4)o3)cs2)cc1", "TARGET SYSTEM": "Cytochrome P450 2C19 (Homo sapiens)", "VALUE OBSERVED": 46.9}
{"COMPOUND": "CCCC(O)(c1ccc(OC)cc1)C(CN(C)C)c1ccccc1 (stereo unspecified)", "TARGET SYSTEM": "Cytochrome P450 2C19 (Homo sapiens)", "VALUE OBSERVED": -13.2}
{"COMPOUND": "O=C(CSCc1ccc(Br)cc1)Nc1ccc(S(=O)(=O)N2CCCCCC2)cc1", "TARGET SYSTEM": "Cytochrome P450 2C19 (Homo sapiens)", "VALUE OBSERVED": 27.3}
{"COMPOUND": "C=CCOC(=O)C1=C(C)NC(SCC(=O)OCC)=C(C#N)C1c1ccc(C)cc1 (stereo unspecified)", "TARGET SYSTEM": "Cytochrome P450 2C19 (Homo sapiens)", "VALUE OBSERVED": 33.7}
{"COMPOUND": "O=C(c1cc(-c2cccs2)on1)N1CCCCC1", "TARGET SYSTEM": "Cytochrome P450 2C19 (Homo sapiens)", "VALUE OBSERVED": 14.3}
{"COMPOUND": "O=C(NCCCn1ccnc1)Nc1ccc(Cl)cc1Cl", "TARGET SYSTEM": "Cytochrome P450 2C19 (Homo sapiens)", "VALUE OBSERVED": 97.4}
{"COMPOUND": "COc1ccc(C(=O)Cc2cnn(-c3ccccc3)c2)c(O)c1", "TARGET SYSTEM": "Cytochrome P450 2C19 (Homo sapiens)", "VALUE OBSERVED": 24.9}
{"COMPOUND": "CCCc1[nH]nc2c1C(c1ccc(OC(=O)c3ccco3)cc1)C(C#N)=C(N)O2 (stereo unspecified)", "TARGET SYSTEM": "Cytochrome P450 2C19 (Homo sapiens)", "VALUE OBSERVED": 43.8}
{"COMPOUND": "C=CCOC(=O)C1=C(C)OC(N)=C(C#N)C1c1ccc(F)cc1 (stereo unspecified)", "TARGET SYSTEM": "Cytochrome P450 2C19 (Homo sapiens)", "VALUE OBSERVED": 75.2}

###

Biological target: Cytochrome P450 2C19 (Homo sapiens) (UniProt P33261)
Sequence (P33261 whole entry, looked up): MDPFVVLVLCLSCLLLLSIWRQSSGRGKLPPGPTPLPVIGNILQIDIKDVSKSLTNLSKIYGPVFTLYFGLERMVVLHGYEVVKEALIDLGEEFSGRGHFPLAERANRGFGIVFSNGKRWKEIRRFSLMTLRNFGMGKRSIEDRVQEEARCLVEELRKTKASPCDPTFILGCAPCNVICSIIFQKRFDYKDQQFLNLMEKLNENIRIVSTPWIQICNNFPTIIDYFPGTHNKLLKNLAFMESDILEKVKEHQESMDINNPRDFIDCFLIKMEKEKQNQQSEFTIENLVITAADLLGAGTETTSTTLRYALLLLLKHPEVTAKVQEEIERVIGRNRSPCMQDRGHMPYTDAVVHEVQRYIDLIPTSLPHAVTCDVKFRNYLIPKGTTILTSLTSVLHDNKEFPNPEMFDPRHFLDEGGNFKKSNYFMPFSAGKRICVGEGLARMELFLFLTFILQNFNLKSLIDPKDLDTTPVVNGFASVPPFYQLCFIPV
Assay: blockers of cytochrome P450 2C19 activity – biochemical, luminescence, ADME assay, primary screen (AID 778);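 further: plate controls were negative control wells for no effect and 2.5 mM tranylcypromine positive control for full effect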
Settings: CYP2C19 Supersomes, luciferin-H EGE luminescence, 30 min; at 5 µM
Out of some 96,000 compounds screened, about 20,000 (21%) were called active.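 Rule for the calls: active = CYP2C19 inhibition above a set limit at 5 µM in the primary screen (cut at about 50% in these data); inactive = the rest.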 These entries were drawn from the full list.
Labels: True (active), False (inactive)

{"COMPOUND": "CC1CC(C)CN(C/C=C/c2ccccc2[N+](=O)[O-])C1 (stereo unspecified)", "CLASS LABEL": "False"}
{"COMPOUND": "c1ccc2c(c1)OCC(c1nn3cnnc3s1)O2 (stereo unspecified)", "CLASS LABEL": "True"}
{"COMPOUND": "CC(=O)Nn1cc2c(=O)n(C)c(=O)n(C)c2c1", "CLASS LABEL": "False"}
{"COMPOUND": "COc1ccc(OCCCON2C(=O)c3ccccc3C2=O)cc1", "CLASS LABEL": "False"}
{"COMPOUND": "COc1ccc(/C=C(/NC(=O)c2ccc(C)cc2)c2nc3ccccc3[nH]2)cc1OC", "CLASS LABEL": "False"}
{"COMPOUND": "CC(=O)NC1=NC(=O)CS1", "CLASS LABEL": "False"}

###

Molecular target: Cytochrome P450 2C19 (Homo sapiens) (UniProt P33261)
Assay: blockers of cytochrome P450 2C19 activity – biochemical, luminescence, ADME assay, primary screen (AID 778);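 further: plate controls were negative control wells for no effect and 2.5 mM tranylcypromine positive control for full effect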
Conditions: CYP2C19 Supersomes, luciferin-H EGE luminescence, 30 min; at 5 µM; hits give high values
The campaign covered roughly 96,000 compounds. About 20,000 (21%) were called active. Only a sample is shown.
Measured inhibition accompanies every entry in the list below.

{"COMPOUND": "Cc1ncn(C23CC4CC(CC(O)(C4)C2)C3)n1", "inhibition / %": 3.7}
{"COMPOUND": "CCOC(=O)c1nc(Nc2ccc(C(=O)OC)cc2)c2ccccc2n1", "inhibition / %": 49.1}
{"COMPOUND": "CC(C)Cc1ccc(S(=O)(=O)N2CCN(C(=O)c3ccco3)CC2)cc1", "inhibition / %": 28.1}
{"COMPOUND": "Cc1noc(C)c1COC(=O)Cn1c(C)nc2ccccc21", "inhibition / %": 17.3}
{"COMPOUND": "Cc1noc(C)c1CSc1nnc2ccc3ccccc3n12", "inhibition / %": 23.4}
{"COMPOUND": "Cc1ccc(S(=O)(=O)n2cnc3ccccc32)c(C)c1", "inhibition / %": 4.5}
{"COMPOUND": "CC(c1ccco1)N(C(=O)COc1ccccc1[N+](=O)[O-])c1ccccn1 (configuration not stated)", "inhibition / %": 40.5}
{"COMPOUND": "COC(=O)c1ccc(NC(=O)Nc2ccc(C)cc2)cc1", "inhibition / %": 2.9}
{"COMPOUND": "O=C(NCCCCCCCCCNC(=O)C(F)(F)F)C(F)(F)F", "inhibition / %": 13.6}
{"COMPOUND": "CCOc1cc(C)c(Cl)cc1S(=O)(=O)n1nnc2ccccc21", "inhibition / %": 66.1}
{"COMPOUND": "O=C(/C=C/Nc1ccccc1OC(F)(F)F)C(F)(F)F", "inhibition / %": 18}
{"COMPOUND": "Cc1nc2ccc(NC(=O)C(F)(F)F)cc2o1", "inhibition / %": 19.3}

###

Target: Cytochrome P450 2C19 (Homo sapiens)
Assay: blockers of cytochrome P450 2C19 activity – biochemical, luminescence, ADME assay, primary screen (AID 778);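 further: plate controls were negative control wells for no effect and 2.5 mM tranylcypromine positive control for full effect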
Conditions: CYP2C19 Supersomes, luciferin-H EGE luminescence, 30 min; at 5 µM
Out of some 96,000 compounds screened, about 20,000 (21%) were called active.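 Rule for the calls: active = CYP2C19 inhibition above a set limit at 5 µM in the primary screen (cut at about 50% in these data); inactive = the rest.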 The list is a sample of the results.
Labels: active, inactive

{"COMPOUND": "C=CCNC(=O)c1sc(SC)cc1-c1ccc(Cl)cc1", "CLASS LABEL": "active"}
{"COMPOUND": "O=S(=O)(NCc1ccccc1Cl)c1cnc[nH]1", "CLASS LABEL": "inactive"}
{"COMPOUND": "COc1cc(NS(=O)(=O)c2ccc(N=Cc3c(C)[nH]n(-c4ccccc4)c3=O)cc2)nc(OC)n1", "CLASS LABEL": "inactive"}
{"COMPOUND": "CCCc1nnc(NC(=O)c2cccs2)s1", "CLASS LABEL": "inactive"}
{"COMPOUND": "Cc1nc(NC(=O)c2cccc(Cl)c2)sc1-c1csc(Nc2cccc(Cl)c2)n1", "CLASS LABEL": "inactive"}
{"COMPOUND": "O=C(Nc1ccccc1)c1nnsc1S(=O)(=O)c1ccc(Cl)cc1", "CLASS LABEL": "inactive"}
{"COMPOUND": "Cc1nnsc1S(=O)(=O)Cc1ccccc1Cl", "CLASS LABEL": "active"}
{"COMPOUND": "CCOC(=O)c1[nH]c(C)c(C(=O)OCC(=O)N2c3ccccc3CC2C)c1C (stereo unspecified)", "CLASS LABEL": "inactive"}
{"COMPOUND": "COc1cc2[nH]c(=O)n(CCC(=O)NC3CCN(Cc4ccccc4)CC3)c(=O)c2cc1OC", "CLASS LABEL": "inactive"}
{"COMPOUND": "Cc1ccsc1-c1nc(CSCC(=O)NCCN2CCCC2)c(C)o1", "CLASS LABEL": "inactive"}
{"COMPOUND": "COc1ccccc1N1CCN(C(=O)CN(Cc2ccc(Cl)cc2)S(C)(=O)=O)CC1", "CLASS LABEL": "inactive"}
